Catalogue of % inhibition of Mal d 1-IgE binding values
Target: IgE of patient serum 5
Assay: ELISA inhibition, serum 5 pre-incubated with 1.25 µg/ml inhibitor; competitor: wt Mal d 1 adsorbed on wells
Number plus unit, in that order.

## Task Would you kindly share the measured % inhibition of Mal d 1-IgE binding for mutant Bet v 1-Mal d 1 hybrid molecule (SEQ ID NO: 4) (protein) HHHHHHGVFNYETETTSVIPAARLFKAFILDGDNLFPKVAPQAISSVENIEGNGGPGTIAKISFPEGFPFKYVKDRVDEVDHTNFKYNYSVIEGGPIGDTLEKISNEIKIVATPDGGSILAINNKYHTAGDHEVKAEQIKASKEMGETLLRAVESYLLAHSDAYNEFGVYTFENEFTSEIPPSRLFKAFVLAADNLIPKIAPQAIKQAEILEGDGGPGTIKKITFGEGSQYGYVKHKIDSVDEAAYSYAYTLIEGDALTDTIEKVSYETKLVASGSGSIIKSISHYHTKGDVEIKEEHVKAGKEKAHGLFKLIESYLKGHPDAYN ?
## Result 50.8%

## Task Same lookup for mixture of the two mutagenised allergens (mut Bet v 1-SEQ ID NO:6 and mut Mal d 1-SEQ ID NO:2) (protein) chain 1: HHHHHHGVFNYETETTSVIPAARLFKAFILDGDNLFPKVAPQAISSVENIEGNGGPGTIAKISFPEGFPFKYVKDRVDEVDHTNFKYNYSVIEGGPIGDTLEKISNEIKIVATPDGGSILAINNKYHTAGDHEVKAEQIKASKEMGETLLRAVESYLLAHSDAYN chain 2: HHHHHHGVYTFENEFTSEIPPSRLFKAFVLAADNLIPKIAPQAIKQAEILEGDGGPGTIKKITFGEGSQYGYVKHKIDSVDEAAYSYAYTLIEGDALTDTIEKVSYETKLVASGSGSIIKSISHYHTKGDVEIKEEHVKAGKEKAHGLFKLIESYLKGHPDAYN , please.
## Result 27.6%

Could you now consider this next binder?
## Task Would you kindly share the measured % inhibition of Mal d 1-IgE binding for mixture of the single wt allergens (wt Bet v 1 and wt Mal d 1) (protein) chain 1: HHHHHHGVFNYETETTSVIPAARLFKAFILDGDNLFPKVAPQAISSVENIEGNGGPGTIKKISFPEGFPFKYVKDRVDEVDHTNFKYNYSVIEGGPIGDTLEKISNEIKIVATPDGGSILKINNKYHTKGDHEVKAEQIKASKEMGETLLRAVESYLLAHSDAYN chain 2: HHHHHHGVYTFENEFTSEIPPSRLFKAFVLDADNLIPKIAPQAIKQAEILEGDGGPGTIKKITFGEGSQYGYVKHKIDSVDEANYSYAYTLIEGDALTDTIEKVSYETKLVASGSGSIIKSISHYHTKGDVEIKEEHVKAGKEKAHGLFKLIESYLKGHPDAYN ?
## Result 88.3%
